Measured PBMC 10 μM (% control), listed per entry.
target: human P2X7 (Homo sapiens (Human), UniProt Q99572); experiment: P2X7 antagonism in human PBMCs (IL-1β release after LPS + Bz-ATP, ELISA); type: cell-based; conditions: human PBMCs, test compound 10 μM
Sequence (Q99572 whole entry): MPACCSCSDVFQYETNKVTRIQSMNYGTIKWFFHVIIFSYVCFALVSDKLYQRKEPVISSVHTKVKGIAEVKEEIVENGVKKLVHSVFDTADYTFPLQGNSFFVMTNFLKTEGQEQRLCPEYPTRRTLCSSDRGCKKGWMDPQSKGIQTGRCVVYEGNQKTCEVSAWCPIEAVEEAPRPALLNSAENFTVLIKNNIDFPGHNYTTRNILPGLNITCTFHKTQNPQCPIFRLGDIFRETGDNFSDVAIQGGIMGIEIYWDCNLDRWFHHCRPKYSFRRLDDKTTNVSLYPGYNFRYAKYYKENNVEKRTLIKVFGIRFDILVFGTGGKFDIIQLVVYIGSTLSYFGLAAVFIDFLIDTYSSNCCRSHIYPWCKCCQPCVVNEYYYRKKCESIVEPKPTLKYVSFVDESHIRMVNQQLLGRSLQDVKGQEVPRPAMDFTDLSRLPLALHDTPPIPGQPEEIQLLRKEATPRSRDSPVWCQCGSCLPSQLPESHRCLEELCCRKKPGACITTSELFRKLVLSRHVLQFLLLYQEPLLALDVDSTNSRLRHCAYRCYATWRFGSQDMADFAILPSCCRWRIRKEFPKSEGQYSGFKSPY
Value expressed in % control; do not type the unit.

These solved cases illustrate the format of a correct answer.
{"columns": ["compound", "u", "PBMC 10 μM (% control)"],
 "data": [
  ["Cc1cc(-n2nnc3c2CCN(C(=O)c2ccnc(C(F)(F)F)c2F)[C@@H]3C)ncc1F (single isomer, unassigned)", "% control", "−2.3"],
  ["Cc1cccc(-n2nnc3c2CCN(C(=O)c2cccc(Cl)c2Cl)C3C)n1 (stereo not shown)", "% control", "−0.1"]
]}

INPUT: Name the reported PBMC 10 μM (% control) value associated with the compound Cc1nccc(-n2nnc3c2CCN(C(=O)c2ccnc(C(F)(F)F)c2Cl)C3C)n1 (stereo not shown)
OUTPUT: 1.1

INPUT: Record request: PBMC 10 μM (% control) value, item CC1c2ncn(-c3ccc(F)cn3)c2CCN1C(=O)c1cccc(C(F)(F)F)c1Cl (stereo not shown)
OUTPUT: 3.7

INPUT: Could you share which PBMC 10 μM (% control) value was measured for C[C@H]1c2nnn(-c3cccc(C(F)(F)F)n3)c2CCN1C(=O)c1cccc(C(F)(F)F)c1Cl (single isomer, unassigned) ?
OUTPUT: 113.7
